Source of measurements: patent US8044025B2

# Target Or Test System: CRF-R2β (Mus musculus)
# Construct: expressed in transfected cells; host or cells: CHO cells, stably transfected
# Sequence (Q60748 27-431 isoform Q60748-2 limits assumed): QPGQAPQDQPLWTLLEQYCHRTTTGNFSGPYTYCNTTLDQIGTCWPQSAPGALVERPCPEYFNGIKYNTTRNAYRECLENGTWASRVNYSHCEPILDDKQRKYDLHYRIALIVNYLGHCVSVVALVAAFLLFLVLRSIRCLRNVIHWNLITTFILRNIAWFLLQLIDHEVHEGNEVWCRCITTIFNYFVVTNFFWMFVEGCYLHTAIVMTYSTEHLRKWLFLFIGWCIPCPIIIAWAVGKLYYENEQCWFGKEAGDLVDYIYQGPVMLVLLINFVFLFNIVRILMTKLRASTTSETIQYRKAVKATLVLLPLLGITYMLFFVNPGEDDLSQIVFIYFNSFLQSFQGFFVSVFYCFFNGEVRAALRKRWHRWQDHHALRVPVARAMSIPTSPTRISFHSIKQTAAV
# Protocol Description: Radioreceptor assay, displacement of 125I-[Tyr0,Glu1,Nle17]-sauvagine, CHO cell membranes (Example 4)
# Experimental Conditions: 3-6 experiments, range from SD of log10 values, read-out: CRF-R2 Avg. Ki (nM) (Binding)
No end group written: not given here.
Reported Property: Ki (nM)
All answers are understood in nM, so give the number only.

(Q) Consider the substance shown here: IVLSLDVPIGLLQILLEQARARAAREQATTNARILARVGHC-NH2 [URP (human)] What is its recorded Ki?
(A) 0.5
